Below is a list of entries, each paired with its recorded relative β-galactosidase activity, inducer Ts value.
Tested on: tetA promoter (PtetA)-lacZ reporter in E. coli KM3
Format: cell-based
TEST PARAMETERS: Table 6, reverse repressor hits; thifensulfuron, same plate assay format as Table 4
REPORTED ENDPOINT: relative β-galactosidase activity, inducer Ts

MOLECULE	VALUE OBSERVED
L1-33: library L1 reverse repressor hit (SEQ ID NO: 1206-1213) (protein, rSuR L1-33) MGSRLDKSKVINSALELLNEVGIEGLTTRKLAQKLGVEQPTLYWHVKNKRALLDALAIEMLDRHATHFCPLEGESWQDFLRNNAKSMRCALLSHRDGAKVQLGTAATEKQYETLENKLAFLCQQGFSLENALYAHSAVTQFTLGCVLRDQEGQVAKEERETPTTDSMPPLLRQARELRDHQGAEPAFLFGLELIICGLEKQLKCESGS	5.51
L1-39: library L1 reverse repressor hit (SEQ ID NO: 1206-1213) (protein, rSuR L1-39) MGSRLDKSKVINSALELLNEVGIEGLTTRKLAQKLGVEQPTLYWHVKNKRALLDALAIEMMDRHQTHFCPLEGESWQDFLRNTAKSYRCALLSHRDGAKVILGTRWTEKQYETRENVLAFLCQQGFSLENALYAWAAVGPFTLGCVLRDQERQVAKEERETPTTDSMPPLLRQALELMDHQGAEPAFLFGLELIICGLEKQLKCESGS	1.42
